assay.remarks: Tanguay_ZF_120hpf_MORT_legacy: (Legacy) Oregon State University Tanguay Lab 120 Hour Post-fertilization zebrafish Assay for Mortality (AID 2283633)
Description: Tanguay_ZF_120hpf_legacy is a whole embryo, multiplexed endpoint assay using zebrafish larvae exposed for 120 hours post fertilization on a 96-well plate.Tanguay_ZF_120hpf_MORT_legacy is one of one assay component(s) measured or calculated from the Tanguay_ZF_120hpf_legacy assay. […] This assay endpoint, Tanguay_ZF_120hpf_MORT_legacy, was analyzed in the positive analysis fitting direction relative to DMSO as the negative control and baseline of activity. […]
Active and inactive are the calls of the source. How the source made its calls: active means hit-call score of the fitted dose curve at least 0.9, where 1 is the maximum; inconclusive means response in the unintended direction; inactive means score below 0.9.
Use one of these outcomes when replying: active, inactive

Examples with answers:
>>> classification("CCOP(=S)(OCC)SCCSCC")
"inactive"
>>> classification("COP(=O)(OC)SCn1c(=O)oc2cc(Cl)cnc21")
"inactive"
>>> classification("CN(C)[C@@H]1C(=O)C(C(N)=O)=C(O)[C@@]2(O)C(=O)C3=C(O)c4c(O)cccc4[C@@](C)(O)[C@H]3[C@H](O)[C@@H]12")
"inactive"
>>> classification("Cc1nn(-c2cc(NS(C)(=O)=O)c(Cl)cc2Cl)c(=O)n1C(F)F")
"inactive"

Now look at this one.
Q: Hi team, can someone confirm the assay call for C[N+]1(C)CCCCC1 ?
Ans: inactive

###

assay.remarks: CCTE_Mundy_HCI_hN2_NOG_NeuriteLength: CCTE's Neurite Outgrowth Assay in human hN2 cells for Neurite Length, Mundy Lab (AID 2284220)
Results filed as inconclusive are left out. Active and inactive are the calls of the source. Rule for the calls: active = hit-call score of the fitted dose curve at least 0.9, where 1 is the maximum; inconclusive = response in the unintended direction; inactive = score below 0.9.
Use one of these outcomes when replying: Yes (active), No (inactive)

Examples with answers:
>>> classification("CCOP(=S)(OCC)Oc1ccc2c(C)c(Cl)c(=O)oc2c1")
"Yes"
>>> classification("CCOP(=O)(SC(C)CC)N1CCSC1=O (stereo not given)")
"No"
>>> classification("COP(=O)(NC(C)=O)SC (stereo not given)")
"No"
>>> classification("CCOC(=O)CC(SP(=O)(OC)OC)C(=O)OCC (stereo not given)")
"No"

Now look at this one.
Q: Hi team, can someone confirm the assay call for CCCSP(=O)(OCC)SCCC ?
Ans: No

###

system: human Thyroid Receptor Alpha (TRa), THRA (gene 7067)
assay.remarks: NVS_NR_hTRa_Antagonist: NovaScreen (NVS) Nuclear Receptor Binding Assay for human Thyroid Receptor Alpha Antagonism (TRa) (AID 2283362);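 further: activity is loss of signal relative to DMSO baseline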
Inconclusive results are not listed. Activity calls are given as the source filed them. The calls were made as follows: active = hit-call score of the fitted dose curve at least 0.9, where 1 is the maximum; inconclusive = response in the unintended direction; inactive = score below 0.9.
Use one of these outcomes when replying: yes (1) for active, no (0) for inactive

>>> classification("CCOP(=S)(OCC)Oc1ccc([N+](=O)[O-])cc1")
"no (0)"
>>> classification("CC(C)N(C(=O)SCC(Cl)=C(Cl)Cl)C(C)C")
"no (0)"
>>> classification("CCOP(=O)(OCC)Oc1cc(C)nc(C(C)C)n1")
"no (0)"
>>> classification("CNC(=O)ON=C(SC)C(=O)N(C)C")
"no (0)"
>>> classification("CCc1cnc(C2=NC(C)(C(C)C)C(=O)N2)c(C(=O)O)c1 (configuration not stated)")
"yes (1)"
>>> classification("CCCCN(CC)c1c([N+](=O)[O-])cc(C(F)(F)F)cc1[N+](=O)[O-]")
"no (0)"

Now look at this one.
Q: Hi team, can someone confirm the assay call for CCC(CC)Nc1c([N+](=O)[O-])cc(C)c(C)c1[N+](=O)[O-] ?
Ans: no (0)
